Test system: mexB (EC) strain
Test: Efflux ability inhibition effect on drug efflux pump MexB (Test Examples 1 and 3): proliferation (OD595) of mexB (EC) strain with EM or LVFX at 1/4 MIC, EC75
Assay type: cell-based, Escherichia coli
Conditions: Table 51, Test Example 1; combined with EM at 1/4 MIC; 16 to 20 hours culture, OD595

- structure-smiles: "COc1ccccc1CN1CCN(C(=O)C(=NN)C2CCN(CCc3ccccc3)CC2)CC1"
  EC75, mexB (EC) strain, EM: "B (25 μM<EC75≤100 μM)"
- structure-smiles: "CCOc1cccc(/C=C/c2nnn[nH]2)c1CN1CCN(C(=O)[C@H](N)C2CCN(CCc3ccccc3)CC2)CC1"
  EC75, mexB (EC) strain, EM: "B (25 μM<EC75≤100 μM)"

---

System: mexB (PA) strain
Experiment: Combinational effect with antibacterial agent against Pseudomonas aeruginosa (Test Examples 2 and 4): mexB (PA) strain with LVFX, TC or AZT at 1/4 MIC, EC99
Format: cell-based
Details: mexB (PA) strain; combined with AZT at 1/4 MIC; Test Example 4
observed-property: EC99, combinational effect with AZT, mexB (PA)

Some solved cases for reference:
- molecule: "CCOc1cccc(F)c1CN1CCN(C(=O)[C@H](N)C2CCN(CCc3cc(Cl)ccc3-c3c[nH]ccc3=O)CC2)CC1"
  result: "B (25 μM<EC99≤100 μM)"
- molecule: "CCSc1cc(F)ccc1CN1CCN(C(=O)[C@H](N)C2CCN(CCc3cc(Cl)ccc3-c3cccc(NC)c3)CC2)CC1"
  result: "S (EC99≤12.5 μM)"
- molecule: "CSc1ccccc1CN1CCN(C(=O)[C@H](N)C2CCN(CCc3cc(Cl)ccc3-c3ccccc3O)CC2)CC1"
  result: "S (EC99≤12.5 μM)"
- molecule: "CCOc1cccc(F)c1CN1CCN(C(=O)[C@H](N)C2CCN(CCc3cc(Cl)ccc3-c3coc4ccccc34)CC2)CC1"
  result: "A (12.5 μM<EC99≤25 μM)"
- molecule: "CSc1ccccc1CN1CCN(C(=O)[C@H](N)C2CCN(CCc3cc(Cl)ccc3-c3cc(O)cc(F)c3)CC2)CC1"
  result: "S (EC99≤12.5 μM)"

Enquiry: I would be grateful if you could share the reported EC99, combinational effect with AZT, mexB (PA) for "CCOc1cccc(F)c1CN1CCN(C(=O)[C@H](N)C2CCN(CCc3cc(Cl)ccc3-c3cccc(O)c3F)CC2)CC1" .
Return: S (EC99≤12.5 μM)

Enquiry: Param item = "CSc1cccnc1CN1CCN(C(=O)[C@H](N)C2CCN(CCc3cc(Cl)ccc3-c3ccccc3)CC2)CC1" ; retrieve measured EC99, combinational effect with AZT, mexB (PA).
Return: A (12.5 μM<EC99≤25 μM)

Enquiry: // query EC99, combinational effect with AZT, mexB (PA) value for entry "CCSc1cc(F)ccc1CN1CCN(C(=O)[C@H](N)C2CCN(CCc3cscc3-c3ccccc3)CC2)CC1"
Return: B (25 μM<EC99≤100 μM)

Enquiry: Please report the recorded EC99, combinational effect with AZT, mexB (PA) for "CCSc1ncccc1CN1CCN(C(=O)[C@H](N)C2CCN(CCc3cc(Cl)ccc3-c3ccccc3)CC2)CC1" .
Return: B (25 μM<EC99≤100 μM)

Enquiry: Consider the molecule shown here: "CCSc1cc(F)ccc1CN1CCN(C(=O)[C@H](N)C2CCN(CCc3cc(Cl)ccc3-c3cc(O)ccc3F)CC2)CC1" What is its recorded EC99, combinational effect with AZT, mexB (PA)?
Return: S (EC99≤12.5 μM)

Enquiry: # get_value(readout='EC99, combinational effect with AZT, mexB (PA)', item= CCOc1cccc(F)c1CN1CCN(C(=O)[C@H](N)C2CCC(N(C)Cc3ccccc3)CC2)CC1 (stereo partly drawn) )
Return: C (100 μM<EC99)

Enquiry: Need EC99, combinational effect with AZT, mexB (PA), item "CCOc1cccc(F)c1CN1CCN(C(=O)[C@H](N)C2CCN(CCc3cc(Cl)ccc3-c3cc(O)cc(Cl)c3)CC2)CC1"
Return: S (EC99≤12.5 μM)

Enquiry: Name the recorded EC99, combinational effect with AZT, mexB (PA) for "CCSc1cccc(O)c1CN1CCN(C(=O)[C@H](N)C2CCN(CCc3cc(Cl)ccc3-c3ccccc3)CC2)CC1" .
Return: S (EC99≤12.5 μM)

Enquiry: Consider the molecule "Cl.N[C@@H](C(=O)N1CCN(Cc2c(O)cccc2Cl)CC1)C1CCN(CCc2cc(Cl)ccc2-c2ccccc2)CC1" and give its measured EC99, combinational effect with AZT, mexB (PA).
Return: A (12.5 μM<EC99≤25 μM)

---

Test system: mexB (PA) strain
Assay: Combinational effect with antibacterial agent against Pseudomonas aeruginosa (Test Examples 2 and 4): mexB (PA) strain with LVFX, TC or AZT at 1/4 MIC, EC99
Format: cell-based
Settings: mexB (PA) strain; combined with AZT at 1/4 MIC; Test Example 4
observed-property: EC99, combinational effect with AZT, mexB (PA)

Worked cases, EC99, combinational effect with AZT, mexB (PA) given:
- structure-smiles: "CCOc1cccc(F)c1CN1CCN(C(=O)[C@H](N)C2CCN(CCc3cc(Cl)ccc3-c3cccc(F)c3O)CC2)CC1"
  result: "B (25 μM<EC99≤100 μM)"
- structure-smiles: "Nc1nc2c(CN3CCN(C(=O)[C@H](N)C4CCN(CCc5cc(Cl)ccc5-c5ccccc5)CC4)CC3)cccc2s1"
  result: "C (100 μM<EC99)"
- structure-smiles: "CCSc1ccc(O)cc1CN1CCN(C(=O)[C@H](N)C2CCN(CCc3cc(Cl)ccc3-c3ccccc3)CC2)CC1"
  result: "S (EC99≤12.5 μM)"
- structure-smiles: "CSc1ccccc1CN1CCN(C(=O)[C@H](N)C2CCN(CCc3cscc3-c3ccccc3)CC2)CC1"
  result: "B (25 μM<EC99≤100 μM)"
- structure-smiles: "CCSc1cc(F)ccc1CN1CCN(C(=O)[C@H](N)C2CCN(CCc3cc(Cl)ccc3-c3cccc(N)c3)CC2)CC1"
  result: "S (EC99≤12.5 μM)"

Enquiry: Value lookup for EC99, combinational effect with AZT, mexB (PA); key = "CSc1sccc1CN1CCN(C(=O)[C@H](N)C2CCN(CCc3cc(Cl)ccc3-c3ccccc3)CC2)CC1"
Return: B (25 μM<EC99≤100 μM)

Enquiry: Report EC99, combinational effect with AZT, mexB (PA) for "CSc1ccccc1CN1CCN(C(=O)[C@H](N)C2CCN(CCc3cc(Cl)ccc3C3=CCCNC3)CC2)CC1" please.
Return: A (12.5 μM<EC99≤25 μM)

Enquiry: Returns the measured EC99, combinational effect with AZT, mexB (PA) for the input compound. Input: "CCSc1ccc(O)cc1CN1CCN(C(=O)[C@H](N)C2CCN(CCc3cc(Cl)ccc3-c3cc(O)ccc3F)CC2)CC1"
Return: S (EC99≤12.5 μM)

Enquiry: Fill blank: measured EC99, combinational effect with AZT, mexB (PA) of the compound "CCOc1cccc(F)c1CN1CCN(C(=O)[C@H](N)C2CCN(CCc3cc(Cl)ccc3-c3c(O)cccc3F)CC2)CC1" is ____.
Return: B (25 μM<EC99≤100 μM)

Enquiry: Reported EC99, combinational effect with AZT, mexB (PA), compound "CCSc1cc(F)ccc1CN1CCN(C(=O)[C@H](N)C2CCN(CCc3cc(Cl)ccc3-c3cc(O)ccc3Cl)CC2)CC1" : ____
Return: S (EC99≤12.5 μM)

Enquiry: Endpoint output: EC99, combinational effect with AZT, mexB (PA) of "CSc1ccccc1CN1CCN(C(=O)[C@H](N)C2CCN(CCc3cc(Cl)ccc3-c3cc(O)cc(Cl)c3)CC2)CC1" . Value?
Return: S (EC99≤12.5 μM)

Enquiry: Query: EC99, combinational effect with AZT, mexB (PA); subject: "CCOc1ncccc1CN1CCN(C(=O)[C@H](N)C2CCN(CCc3cc(Cl)ccc3-c3ccccc3)CC2)CC1"
Return: B (25 μM<EC99≤100 μM)

Enquiry: What measured EC99, combinational effect with AZT, mexB (PA) goes with "CSc1ccc(F)cc1CN1CCN(C(=O)[C@H](N)C2CCN(CCc3cc(Cl)ccc3-c3ccccc3)CC2)CC1" ?
Return: B (25 μM<EC99≤100 μM)

Enquiry: Bench note: what EC99, combinational effect with AZT, mexB (PA) did "CCOc1cccc(F)c1CN1CCN(C(=O)[C@H](N)C2CCN(CCc3ccc(O)cc3-c3ccccc3)CC2)CC1" show?
Return: C (100 μM<EC99)

Enquiry: Look up EC99, combinational effect with AZT, mexB (PA) for this compound: "N[C@@H](C(=O)N1CCN(Cc2c(F)cccc2-c2c[nH]cn2)CC1)C1CCN(CCc2cc(Cl)ccc2-c2ccccc2)CC1"
Return: B (25 μM<EC99≤100 μM)

Enquiry: Can you look up the measured EC99, combinational effect with AZT, mexB (PA) of "CSc1ccccc1CN1CCN(C(=O)[C@H](N)C2CCN(CCc3cc(Cl)ccc3-c3ccccc3N)CC2)CC1" for me?
Return: S (EC99≤12.5 μM)

Enquiry: Look up EC99, combinational effect with AZT, mexB (PA) for this compound: "N[C@@H](C(=O)N1CCN(Cc2ccccc2SC(F)(F)F)CC1)C1CCN(CCc2cc(Cl)ccc2-c2ccccc2)CC1"
Return: C (100 μM<EC99)

Enquiry: Any idea what EC99, combinational effect with AZT, mexB (PA) was measured for "CCOc1cccc(F)c1CN1CCN(C(=O)[C@H](N)C2CCN(CCc3cc(Cl)ccc3-c3cc(O)cc(F)c3)CC2)CC1" ?
Return: A (12.5 μM<EC99≤25 μM)

Enquiry: Could you tell me which EC99, combinational effect with AZT, mexB (PA) is on file for "CCc1ccccc1CN1CCN(C(=O)[C@H](N)C2CCN(CCc3cc(Cl)ccc3-c3ccccc3)CC2)CC1" ?
Return: B (25 μM<EC99≤100 μM)

Enquiry: What value of EC99, combinational effect with AZT, mexB (PA) has been reported for the following compound? "CCOc1cccc(F)c1CN1CCN(C(=O)[C@H](N)C2CCN(CCc3cc(Cl)ccc3-c3csc4ccccc34)CC2)CC1"
Return: A (12.5 μM<EC99≤25 μM)

Enquiry: Any idea what its EC99, combinational effect with AZT, mexB (PA) is? The compound is "N[C@@H](C(=O)N1CCN(Cc2c(O)cccc2C(F)(F)F)CC1)C1CCN(CCc2cc(Cl)ccc2-c2ccccc2)CC1"
Return: B (25 μM<EC99≤100 μM)

Enquiry: Quick one: EC99, combinational effect with AZT, mexB (PA) of "COc1cncc(F)c1CN1CCN(C(=O)[C@H](N)C2CCN(CCc3cc(Cl)ccc3-c3ccccc3)CC2)CC1" ?
Return: C (100 μM<EC99)

Enquiry: Find the recorded EC99, combinational effect with AZT, mexB (PA) belonging to "CCOc1cccc(F)c1CN1CCN(C(=O)[C@H](N)C2CCN(CCc3cc(Cl)ccc3-c3cccc(N(C)C)c3)CC2)CC1" and report it.
Return: A (12.5 μM<EC99≤25 μM)

Enquiry: Request the reported EC99, combinational effect with AZT, mexB (PA) associated with "CSc1cccc(Cl)c1CN1CCN(C(=O)[C@H](N)C2CCN(CCc3cc(Cl)ccc3-c3ccccc3)CC2)CC1"
Return: B (25 μM<EC99≤100 μM)

The reported measurements were obtained from patent US20250326744A1.
